Items are presented alongside their recorded protein stability index.
B1: WEE1 (parent)
chain: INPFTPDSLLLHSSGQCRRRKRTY

variants of: B1; assay: protein stability index of a GFP-peptide fusion (GPS, HEK-293T) (PSI 1-6); higher = more stable; conditions: c terminus: a fixed tail appended;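 also: lentivirally expressed fusions sorted by FACS into six bins by GFP to DsRed ratio, PSI derived from sequencing read proportions per bin multiplied by bin number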

sequence_entry | protein stability index
INPFTPDSLLNHSSGQCRRRKRTY [L11N] | 3.92
RNPFTPDSLLLHSSGQCRRRKRTY [I1R] | 4.02
INPFKPDSLLLHSSGQCRRRKRTY [T5K] | 3.45
INPFTPDSLMLHSSGQCRRRKRTY [L10M] | 3.38
INPFTPDSLLLHSSGQCRRRKRTH [Y24H] | 3.75
INPFTPDSTLLHSSGQCRRRKRTY [L9T] | 3.67
INPFTPDSLALHSSGQCRRRKRTY [L10A] | 3.96
INPFTPDQLLLHSSGQCRRRKRTY [S8Q] | 3.73
INPFTPDSLLLCSSGQCRRRKRTY [H12C] | 2.57
INPFTPDSLLLHSSYQCRRRKRTY [G15Y] | 2.9
INPFTPDSLPLHSSGQCRRRKRTY [L10P] | 4.07
INPFTPDSLLLHSSGQCDRRKRTY [R18D] | 3.78
INPFTPDSLLLHSSGQCARRKRTY [R18A] | 3.46
INPFTWDSLLLHSSGQCRRRKRTY [P6W] | 2.21
ENPFTPDSLLLHSSGQCRRRKRTY [I1E] | 3.6
IFPFTPDSLLLHSSGQCRRRKRTY [N2F] | 2.35
INPFTPDSLLLHSSGQLRRRKRTY [C17L] | 4
TNPFTPDSLLLHSSGQCRRRKRTY [I1T] | 3.87
INPFTPASLLLHSSGQCRRRKRTY [D7A] | 3.13
INPFTPDRLLLHSSGQCRRRKRTY [S8R] | 2.71
INPFTPDSLLLHSVGQCRRRKRTY [S14V] | 2.62
INPFTPDSSLLHSSGQCRRRKRTY [L9S] | 4.06
